Reported activity is given for each of the following compounds.
ASSAY_SUMMARY: caspase-8 TRAIL sensitization, hit retest, confirmation, cell-based, NB7+caspase-8, with/without TRAIL, luminescence panel (AID 651596)
TEST_CONTEXT: NB7 neuroblastoma + caspase-8, without TRAIL, luminescence viability, without TRAIL, mean of runs, at 10 µM
Your answer should be a plain number; it is taken to be in %.

Worked cases, answers included:
INSERT INTO assay_data (smiles, parameter_measured, reported_measurement) VALUES
  ('Cc1nnc(NC(=O)c2nc(S(=O)(=O)Cc3ccccc3)ncc2Cl)s1', 'activity', 84.9),
  ('Cc1ccc(C(=O)N/N=C\c2cccc(OC(=O)c3cccc(F)c3)c2)cn1', 'activity', 36.8),
  ('COc1ccc(C=Cc2ccc3ccccc3n2)c(OC)c1', 'activity', 68.5),
  ('CC1(C)N=C(N)N=C(N)N1c1ccccc1', 'activity', 87.2),
  ('Cc1cccnc1Nc1nc(-c2ccccn2)cs1', 'activity', 63.1);

Then there is this compound:
Returns the measured activity for the input compound. Input: `Cc1nc2c(ccc3nc(NC(=O)c4ccc5c(c4)OCCO5)sc32)s1` 84.3

---

System: Rat fibroblasts (CREF)
ASSAY_SUMMARY: Peg3 promoter luciferase inhibitors, potency, dose response, cell-based, HeLa, CREF/GAPDH counter-screen panel (AID 624167)
TEST_CONTEXT: CREF/GAPDH counter-screens; run 2, dose range 1, at 100 µM (top of the series)
PARAMETER_MEASURED: inhibition (%)
Your answer should be a plain number; it is taken to be in %.

Worked cases, answers included:
INSERT INTO results (compound, units_label, reported_measurement) VALUES
  ('CCCCC(=O)NC(c1ccccc1)c1ccc2cccnc2c1O (stereo unspecified)', '%', -7.89),
  ('Cc1oc(-c2ccc3c(c2)OCCO3)cc1C(=O)O', '%', 81.3);

Returns the measured inhibition for the input compound. Input: `O=C(CN1C(=O)c2ccccc2S1(=O)=O)c1ccc2c(c1)OCCO2` 96

Also need `O=C(Nc1ccc([N+](=O)[O-])cc1)C(=O)Nc1cccc(C(=O)O)c1` , thanks. 96.8

Also need `COc1ccc(-c2nc(-c3ccccn3)no2)cc1` , thanks. 99.4

Also need `COc1cc(/C=C2\SC(=Nc3ccccc3OC)NC2=O)ccc1O` , thanks. -20.9

Also need CCCC(=O)NC(c1ccc(OC)cc1)c1ccc2cccnc2c1O (stereo unspecified) , thanks. 99.5

Also need `CCCSc1ccc2nc(-c3ccccc3)cn2c1` , thanks. 95.7

Also need CCCCC(=O)NC(c1ccccc1OC)c1ccc2cccnc2c1O (stereo unspecified) , thanks. 5.38

Also need `CCSc1nc2ccccc2n1C(=O)/C=C\c1ccc(OC)c(OC)c1` , thanks. 91.8

Also need `Cc1ccc(/C=C2\SC(=S)N(CCCC(=O)NNC(=O)c3ccccc3O)C2=O)cc1` , thanks. 11

Also need `O=C(N/N=C/c1cccs1)c1n[nH]c2c1CCCC2` , thanks. 96.8

Also need `Cc1ccc(-n2[nH]c(=O)c(-c3ccccn3)c2C)cc1` , thanks. 87.2

Also need `Cc1ccc(-c2cn3cc(C)ccc3n2)cc1` , thanks. 96.8

Also need `Cc1cccc(C)c1NC(=O)c1nc(S(=O)(=O)Cc2ccccc2)ncc1Cl` , thanks. 99

Also need `COC1=CC(=O)c2c(ccc3ncnc(N)c23)C1=O` , thanks. 100

Also need CC1CCCN(c2ncnc3c2cnn3-c2ccc(Cl)cc2)C1 (stereo unspecified) , thanks. 96.6

Also need `COc1ccc(C(=O)Nc2nc3ccccc3s2)c(OC)c1` , thanks. 97.7

Also need `Cc1cc(C)c2c(N)c(C(=O)Nc3ncc(C)s3)sc2n1` , thanks. 98.9

Also need `NC1=C(Br)C(=O)c2ncccc2C1=O` , thanks. 98.6

---

Tested on: Rat fibroblasts (CREF)
ASSAY_SUMMARY: Peg3 promoter luciferase inhibitors, potency, dose response, cell-based, HeLa, CREF/GAPDH counter-screen panel (AID 624167)
TEST_CONTEXT: CREF/GAPDH counter-screens; run 1, dose range 1, at 100 µM (top of the series)
PARAMETER_MEASURED: inhibition (%)
Your answer should be a plain number; it is taken to be in %.

Returns the measured inhibition for the input molecule. Input: Cc1cc(C)c2nc(NNC(=O)c3ccc(S(=O)(=O)N4CC(C)CC(C)C4)cc3)sc2c1 (centres undefined) 92.9

Also need `S=C(NN=C(c1ccccc1)c1ccccn1)N(Cc1ccccn1)Cc1ccccn1` , thanks. 97.9

Also need `O=C(CN1C(=O)c2ccccc2S1(=O)=O)c1ccc2c(c1)OCCO2` , thanks. 95.2

---

ASSAY_SUMMARY: HIF-2a reporter inhibitor retest, confirmation, luminescence, 786-0 RCC cells (AID 651580)
TEST_CONTEXT: HIF-2a luciferase reporter luminescence, overnight, at 18.8 µM
This is one part of the list. Activity calls are given as the source filed them.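 How the source made its calls: active means mean inhibition across four replicates of at least 40 percent at the single tested concentration; inactive means the rest.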
Select the matching outcome among 1 for active, -1 for inactive

INSERT INTO results (compound, category) VALUES
  ('NC(N)=Nc1nc(-c2ccccc2)c2cc(Cl)ccc2n1', -1),
  ('COCCNC(=O)Nc1ccc2nc(-c3ccco3)c(-c3ccco3)nc2c1', -1),
  ('O=C1C=C(c2ccc(Cl)cc2)C(=O)N1Nc1ccccc1', 1),
  ('Cc1[nH]c(=O)c(C(=O)/C=C/c2ccccc2)c2c1CCCC2', 1),
  ('CSc1nc(-c2ccccc2)nc(C(Cl)Cl)n1', 1);

Please state the recorded outcome for this compound: `N#Cc1cccc(NC(=O)COC(=O)c2ccccc2C(=O)c2ccc(Cl)c([N+](=O)[O-])c2)c1` 1

Also need `CCN1CCN(CCNC(=O)c2ccc3c(c2)NC(=O)/C(=C\c2cccc(Cl)c2)S3)CC1` , thanks. -1

Also need `O=C(CN1C(=O)c2ccccc2S1(=O)=O)N1CCc2ccccc21` , thanks. 1

---

EXPERIMENTAL_TARGET: Tumor necrosis factor receptor superfamily member 10B (Homo sapiens) (UniProt O14763)
Sequence (O14763 whole entry, looked up): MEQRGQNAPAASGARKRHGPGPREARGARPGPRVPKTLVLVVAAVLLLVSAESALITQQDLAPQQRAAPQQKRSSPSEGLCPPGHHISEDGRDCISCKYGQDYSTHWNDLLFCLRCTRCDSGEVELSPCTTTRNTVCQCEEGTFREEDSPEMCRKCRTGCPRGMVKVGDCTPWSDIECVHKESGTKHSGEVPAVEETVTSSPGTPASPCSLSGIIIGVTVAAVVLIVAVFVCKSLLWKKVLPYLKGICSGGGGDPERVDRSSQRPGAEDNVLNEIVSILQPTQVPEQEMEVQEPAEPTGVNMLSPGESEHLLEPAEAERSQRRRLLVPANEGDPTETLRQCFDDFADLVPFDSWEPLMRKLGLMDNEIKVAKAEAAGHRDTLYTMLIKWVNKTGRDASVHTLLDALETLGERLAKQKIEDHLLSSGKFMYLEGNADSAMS
ASSAY_SUMMARY: TRAIL sensitizers in caspase-8 expressing neuroblastoma cells, dose response, NB7 cells plus caspase-8, luminescence, panel (AID 652002)
TEST_CONTEXT: NB7 neuroblastoma +caspase-8, TRAIL sensitization, luminescence viability, NB7+Caspase-8, with TRAIL, run 2; at 12.5 µM (top of the series)
Threshold 40%. activity, % sensitization below it: T. activity, % sensitization at it or above: F.

For orientation, consider the following solved cases.
INSERT INTO measurements (smiles, category) VALUES
  ('O=C(Nc1ccc2c(c1)OCCO2)NC1CCCCC1', 'F'),
  ('O=C(Nc1ccc(C(=O)O)cc1)/C(=C\C=C\c1ccccc1)NC(=O)c1ccccc1Cl', 'T'),
  ('O=C(N/N=C/c1cccnc1)c1ccc2c(c1)OCO2', 'T');

--- query ---
Given the entry `Cc1ccnc(NC(=O)Nc2ccc3c(c2)OCO3)c1` , would its reported activity, % sensitization be below 40%? T

---

Reported activity is given for each of the following compounds.
ASSAY_SUMMARY: caspase-8 TRAIL sensitization, hit retest, confirmation, cell-based, NB7+caspase-8, with/without TRAIL, luminescence panel (AID 651596)
TEST_CONTEXT: NB7 neuroblastoma + caspase-8, without TRAIL, luminescence viability, without TRAIL, mean of runs, at 10 µM
Your answer should be a plain number; it is taken to be in %.

INSERT INTO assay_data (smiles, units_label, reported_measurement) VALUES
  ('CC[C@@H](C)[C@H](CNC)NC[C@@H](Cc1cccc2ccccc12)NCCc1cccc(C(F)(F)F)c1', '%', 97.8),
  ('Cc1ccc(CN=c2c([N+](=O)[O-])nn(-c3cccc(C)c3)n2O)cc1', '%', 24.7),
  ('CCCCCCN(C(=O)CCl)c1ccccc1', '%', 99.2),
  ('O=C(Nc1ccc(NC(=O)c2cccs2)cn1)c1ccco1', '%', 71.5),
  ('Cn1c(-c2ccccc2)c(C(=O)CCl)c2ccccc21', '%', 99.2);

Then there is this compound:
Returns the measured activity for the input compound. Input: `CC(=O)Nc1nc2ccccc2n1CCOc1ccccc1` 49.5

---

Reported inhibition is given for each of the following compounds.
ASSAY_SUMMARY: inhibition of Brca1/Bard1 split-luciferase complementation, confirmation, counter-screen for Mdm2/MdmX interaction inhibitor project, luminescence, single concentration (AID 504668)
TEST_CONTEXT: Brca1/Bard1 bimolecular luciferase complementation counterscreen, at 8 µM, stronger effect = higher value
Your answer should be a plain number; it is taken to be in %.

INSERT INTO measurements (smiles, parameter_measured, reported_measurement) VALUES
  ('COc1ccc(-c2cc(=O)oc3c(C)c(OC(=O)c4cccs4)ccc23)cc1', 'inhibition', 32.9);

Returns the measured inhibition for the input compound. Input: `COC(=O)Cc1[nH]n(-c2nc3ccccc3s2)c(=O)c1C(C)=Nc1ccc(OC)cc1` 26.2

Also need `CCN(CC)c1ccc(/C=N/NC(=O)CCC(=O)NCc2ccccc2)c(O)c1` , thanks. 33.7

Also need `O=C(CCCN1C(=O)/C(=C\c2cccc(Br)c2)SC1=S)Nc1cccnc1` , thanks. 24.4

Also need `CCCCCCc1cc2cc(S(=O)(=O)c3ccc(F)c(Cl)c3)c(=O)oc2cc1O` , thanks. 27.6

Also need `COc1cc(/C=C/C(=O)N2CCC=CC2=O)cc(OC)c1OC` , thanks. 26.8

Also need `C#CCOCCOCCOCCNc1nc(N2CCN(C(=O)CCCCCCCCCCNC(=O)Cn3cc(C[C@@H](C)O)nn3)CC2)nc(N2CCN(C(=O)CCCCCCCCCCNC(=O)[C@@H]([C@H](C)CC)n3cc(CCCCCN)nn3)CC2)n1` , thanks. 27.2

Also need `CC[C@@H](C(=O)[C@@H](C)[C@@H](O)[C@H](C)CCc1ccc(C)c(O)c1C(=O)O)[C@H]1O[C@](CC)([C@H]2CC[C@](O)(CC)[C@H](C)O2)C[C@@H]1C` , thanks. 35.2
